protocol_text: In vitro enzyme assay to detect hydrolysis of chlorophenol red-beta-D-[…] directly proportional to the number of Toxoplasma stably expressing beta-galactosidase
Assay type: functional, organism-based, Toxoplasma gondii
Set-up: scale not given: in the data most compounds retested in dose-response had high values
study_conditions: 10 µM
About 440 (0.52%) of roughly 85,000 compounds showed an effect of 50% or more. Only a selection was taken, and strong results are over-represented in it overall.
measured_attribute: Percent Effect (%)

>>> df
                                    compound  unit_name  endpoint_value
 0  Cc1c[nH]nc1C1CCN(C(=O)C2CCCC2)C1 (configuration not stated)          %           6.331
 1  CCN(CC)CCCNCC1CCOC(C)(C)C1 (configuration not stated)          %            1.68
 2  O=C(Nc1ccncc1)NC1CCN(c2ccccc2OC(F)F)C1 (configuration not stated)          %           74.41
 3  CC(C)=CCN1CCOC(Cn2nc(C)cc2C)C1 (configuration not stated)          %           97.95
 4  CN(C)CCNCCC(Cc1ccccc1)C1CCOC(C)(C)C1.O=C(O)C(=O)O (configuration not stated)          %           9.919
 5  COCC(=O)N1CCn2c(COc3cccnc3)cnc2C1C.O=C(O)C(F)(F)F (configuration not stated)          %           84.28
 6  CN(C)CCCNCCC(Cc1ccccc1)C1CCOC(C)(C)C1.O=C(O)C(=O)O (configuration not stated)          %           77.21
 7  CN(C)CCNCC1CCOC(C)(C)C1 (configuration not stated)          %           12.77
 8  Cc1cc(C)n(CC2CN(CC3CCCC3)CCO2)n1 (configuration not stated)          %          -2.525
 9  CCn1nc(C)c(NC(=O)c2cc(NC(=O)C(C)C)n(C)n2)c1C          %           1.116
10          CCN(CC)C(=O)c1nnn(Cc2ccccc2)c1OC          %          -3.108
11  CCn1nc(C)c(NC(=O)c2nnn(Cc3ccccc3)c2OC)c1C          %           55.69

====

protocol_text: In vitro enzyme assay to detect hydrolysis of chlorophenol red-beta-D-[…] directly proportional to the number of Toxoplasma stably expressing beta-galactosidase
Type: functional, organism-based, Toxoplasma gondii
Set-up: scale not given: in the data most compounds retested in dose-response had high values
study_conditions: 10 µM
The campaign covered roughly 85,000 compounds. About 440 (0.52%) showed an effect of 50% or more. The full list was thinned out, with strong results kept by preference.
measured_attribute: Percent Effect (%)

                          chemical_structure  measured_attribute  endpoint_value
 0  Cc1nc(N2CCN(c3ccccc3)CC2)c2c(n1)c(C)nn2C      Percent Effect           52.19
 1        CCCOc1ccc(Cl)cc1CNc1ncnc2oc(C)nc12      Percent Effect           57.15
 2  Cc1nc(N2CCN(C(=O)C3CCCC3)CC2)c2c(n1)c(C)nn2C      Percent Effect          -37.24
 3  Cc1nc(N2CCN(C(=O)c3ccccc3)CC2)c2c(n1)c(C)nn2C      Percent Effect          -7.412
 4  CCc1nc2ccccc2c(=O)n1CC1(O)CCN(C(=O)COC)CC1.Cl      Percent Effect           54.94
 5  CCc1nc2ccccc2c(=O)n1CC1(O)CCN(C(=O)C2CC2)CC1.Cl      Percent Effect          0.3648
 6  Cc1nc(N2CCN(C(=O)c3ccncc3)CC2)c2c(n1)c(C)nn2C      Percent Effect           77.24
 7  Cc1nc(N2CCN(C(=O)c3ccco3)CC2)c2c(n1)c(C)nn2C      Percent Effect            56.5
 8     Cc1nn(C)c2c(N3CCC(C)CC3)nc(C3CC3)nc12      Percent Effect           6.306
 9  Cc1nc(N2CCN(C(=O)c3ccccn3)CC2)c2c(n1)c(C)nn2C      Percent Effect           25.12
10     Cc1nn(C)c2c(N3CCN(C)CC3)nc(C3CC3)nc12      Percent Effect           7.951

====

protocol_text: In vitro enzyme assay to detect hydrolysis of chlorophenol red-beta-D-[…] directly proportional to the number of Toxoplasma stably expressing beta-galactosidase
Assay type: functional, organism-based, Toxoplasma gondii
Set-up: scale not given: in the data most compounds retested in dose-response had high values
study_conditions: 50 µM
About 440 (0.52%) of roughly 85,000 compounds showed an effect of 50% or more. The sample holds strong results, similar compounds and a random draw of the others, so the mix is not that of the screen.
Percent Effect vs -10%: less than gives Satisfied; not less than gives Not satisfied.

In [3]: df
Out[3]:
                                    compound    group_label
 0  CCC(CNC(=O)c1ccoc1)N1CCCC1 (centres undefined)  Not satisfied
 1  CC(CO)N(C)C(=O)c1cccc2cc[nH]c12 (centres undefined)  Not satisfied
 2  CCCOC(C)C(=O)NCCc1noc(CO)n1 (centres undefined)      Satisfied
 3  CC(N)(CO)c1ccc(Br)cc1 (centres undefined)  Not satisfied
 4            OCc1nnc2n1N=C(c1ccc(Cl)cc1)CS2  Not satisfied
 5  CCN1CCCC1CNS(=O)(=O)CCCC#N (centres undefined)      Satisfied
 6           CN(C)S(=O)(=O)N(CCCO)c1ccccc1Br      Satisfied
 7  Cc1cc(F)cc(C(=O)N(C)C(C)CN)c1 (centres undefined)  Not satisfied
 8  CC(C)CC(C)CN1CCN(CCS(C)(=O)=O)CC1 (centres undefined)      Satisfied
 9                  Cc1nnc2n1N=C(c1cccs1)CS2      Satisfied
10  Cc1ccc(CN2CCOC(CCO)C2)c(F)c1 (centres undefined)  Not satisfied
11                 Cc1nnc2n1N=C(c1ccccc1)CS2  Not satisfied
12  CC1CCCCN1C(=O)NCCNC(=O)c1ccn[nH]1 (centres undefined)  Not satisfied

====

protocol_text: In vitro enzyme assay to detect hydrolysis of chlorophenol red-beta-D-[…] directly proportional to the number of Toxoplasma stably expressing beta-galactosidase
Assay type: functional, organism-based, Toxoplasma gondii
Set-up: scale not given: in the data most compounds retested in dose-response had high values
study_conditions: 10 µM
Screen size: about 85,000 compounds; about 440 (0.52%) showed an effect of 50% or more. For the sample, strong results were picked, then their nearest neighbours and some compounds at random.
Lab note: compare Percent Effect against 20%. Equal or greater, write Y. Smaller, write N.

In [3]: df
Out[3]:
                                    compound  group_label
 0    CC(C)(C)c1nccc(C2(c3ccccc3Cl)CCNCC2)n1            Y
 1          CCCc1nc(NCCCOCC)c2c(n1)c(C)nn2CC            Y
 2  CNc1ncc2c(n1)CN(C1CC(C)(C)NC(C)(C)C1)C2=O            N
 3           CCCc1nc(NCCCOC)c2c(n1)c(C)nn2CC            Y
 4               Nc1ncc2c(n1)CN(C1CCCC1)C2=O            N
 5  CCn1cc(-c2cc(C(F)(F)F)nc(NC3CCCC3)n2)c(C)n1            Y
 6  Cc1nn(C)cc1-c1cc(C(F)(F)F)nc(NC2CCCCC2)n1            N
 7          CN(C)c1ncc2c(n1)CN(C1CCSCC1)C2=O            Y
 8              CNc1ncc2c(n1)CN(C1CCCC1)C2=O            Y
 9  Cc1nn(C)cc1-c1cc(C(F)(F)F)nc(NC2CCN(C)CC2)n1            N
10  CC1CCC(N2Cc3nc(N)ncc3C2=O)CC1 (configuration not stated)            N
11      Clc1ccccc1C1(c2ccnc(CC3CC3)n2)CCNCC1            Y

// provenance: ChEMBL document CHEMBL3988442
